biological target: HLA-B*46:01; assay: IEDB peptide-MHC binding, purified MHC/direct/fluorescence; filed as Kd, often an IC50 or EC50 that approximates it; bounds were set here for any values at or beyond the usual limits of such assays; settings: source organism: Cryptosporidium parvum
pKd: −log10 of the molar value.
attribute_measured: pKd

- seq_string: "NTSTCFQEY"
  target_entity: "HLA-B*46:01"
  attribute_measured: "pKd"
  experimental_value: "≤ 4.70"

----------
target: HLA-A*03:01; experiment: IEDB peptide-MHC binding, purified MHC/competitive/radioactivity; filed as Kd, often an IC50 or EC50 that approximates it; bounds were set here for any values at or beyond the usual limits of such assays; conditions: source organism: Dengue virus 1 Brazil/97-11/1997
pKd: −log10 of the molar value.
Known pKd of a selection of sequences
attribute_measured: pKd

- seq_string: "GILARWSSFK"
  experimental_value: 8.69
- seq_string: "VSILLSSLLK"
  experimental_value: 7.96
- seq_string: "LVTFKTAHAK"
  experimental_value: 7.58
- seq_string: "YLALMATFK"
  experimental_value: 8.15
- seq_string: "SLRTTTVTGK"
  experimental_value: 8.20
- seq_string: "KVDTRTPRAK"
  experimental_value: 8.14
- seq_string: "GLLSGQGPMK"
  experimental_value: 8.58

----------
biological target: HLA-A*68:02; test: IEDB peptide-MHC binding, purified MHC/competitive/fluorescence; filed as Kd, often an IC50 or EC50 that approximates it; bounds were set here for any values at or beyond the usual limits of such assays; conditions: source organism: Orthomarburgvirus marburgense
pKd: −log10 of the molar value.

- seq_string: "ISDPLTSGL"
  pKd: "≤ 4.70"

----------
target: HLA-A*02:06; assay: IEDB peptide-MHC binding, purified MHC/competitive/radioactivity; filed as Kd, often an IC50 or EC50 that approximates it; bounds were set here for any values at or beyond the usual limits of such assays; conditions: source organism: SARS coronavirus Tor2
pKd: −log10 of the molar value.
Please enter true where pKd is greater than or equal to 8, and false where it is lower.

- seq_string: "NMLRIMASL"
  category_label: "false"
- seq_string: "TLDAANHSI"
  category_label: "false"
- seq_string: "ALSGVFCGV"
  category_label: "false"
- seq_string: "VVFLHVTYV"
  category_label: "true"

----------
target: HLA-B*73:01; assay: IEDB peptide-MHC binding, purified MHC/direct/fluorescence; filed as Kd, often an IC50 or EC50 that approximates it; bounds were set here for any values at or beyond the usual limits of such assays; details: source organism: Bacillus cereus B4264
pKd: −log10 of the molar value.

- seq_string: "RRMMMRITE"
  pKd: 5.94

----------
biological target: HLA-B*40:01; assay: IEDB peptide-MHC binding, purified MHC/direct/fluorescence; filed as Kd, often an IC50 or EC50 that approximates it; bounds were set here for any values at or beyond the usual limits of such assays; conditions: source organism: Mycobacterium tuberculosis
Each entry below carries its reported Kd.
attribute_measured: Kd

- seq_string: "LPAEVRAAF"
  experimental_value: "≥ 20 µM"
- seq_string: "SPRSRNRSF"
  experimental_value: "≥ 20 µM"
- seq_string: "QVFKGVVIR"
  experimental_value: "≥ 20 µM"
- seq_string: "APAKKAAPA"
  experimental_value: "≥ 20 µM"
